Test system: GM16513 cells
Type: cell-based
Conditions: 10 µM, 3 days, PI positive cells (dead cells)
% PI+ cells vs 3%: less than gives TRUE; not less than gives FALSE.

Look over these answered cases.
CCCCNNC(=O)c1ccc(-c2cccc(F)c2F)cc1 = TRUE
O=C(NO)c1ccc(CNC(=O)c2[nH]c(-c3ccc(O)cc3)cc2-c2ccoc2)cc1.O=C(O)C(F)(F)F [QTX125 (TFA)] = FALSE
COc1ccc(-c2nc(N3CCOCC3)c3sc(CN(C)c4ncc(C(=O)NO)cn4)cc3n2)cn1 [Fimepinostat] = FALSE

Strictly below 3%: is that where % PI+ cells of `Oc1cc(O)cc(/C=C/c2c(O)cccc2O)c1` sits?
TRUE

Consider `C#Cc1cccc(Nc2ncnc3cc(OC)c(OCCCCCCC(=O)NO)cc23)c1` . Does its % PI+ cells lie strictly below 3%?
FALSE

% PI+ cells under 3%? Item: `O=C(NCC1(c2nc(-c3ccccc3)cs2)CCOCC1)c1cccc(-c2noc(C(F)(F)F)n2)c1`
TRUE

Regarding `O=C1CCc2c(ccc3ccccc23)O1` , kindly confirm whether its % PI+ cells is beneath 3%.
TRUE

Confirm or reject: % PI+ cells of `Nc1cc(F)ccc1NC(=O)c1ccc(CNC(=O)/C=C/c2cccnc2)cc1` lies strictly below 3%
FALSE

Record `CN1CCc2c(c3ccccc3n2Cc2ccc(C(=O)NO)cc2)C1` : is its % PI+ cells strictly below 3%?
TRUE

====

Tested on: PEX405 cells
Type: cell-based
Details: 1.3 µM, 3 days, PI positive cells (dead cells)
Assay readout: % PI+ cells
Include the unit after the number when you answer.

Examples from the recorded data:
Cn1c(/C=C/C(=O)NO)ccc1/C=C/C(=O)c1cccc(F)c1 [MC1568] = 0%
O=C(CCCCCCC(=O)Nc1ccccc1)NO [Vorinostat] = 1%
Cc1nn(C)cc1CN1CCC(c2ccc(C(=O)Nc3ccccc3N)cc2)CC1 [CXD101] = 0%
O=C(NO)c1cnc(N2C[C@@H]3[C@H](C2)[C@H]3NCc2ccc3cc(F)ccc3n2)nc1 [Nanatinostat] = 15%

Hello, I am looking for reported % PI+ cells with PEX405 cells for O=C(NO)c1ccc(CC(=O)N(CCO)c2ccccc2)cc1 [HPOB] . Could you help?
1%

====

System: PEX405 cells
Type: cell-based
Conditions: 1.3 µM, 3 days, PI positive cells (dead cells)
Assay readout: % PI+ cells (%)
One number for each entry, in %.

Nc1ccccc1NC(=O)c1ccc(Cn2cc(-c3ccc(C(=O)NCc4cccnc4)cc3)nn2)cc1 = 1
CC1(C)c2cccc(C(=O)NO)c2CN1c1cnc(C(F)(F)F)cn1 = 0
CC(=O)Nc1ccc(C(=O)Nc2ccc(F)cc2N)cc1 = 1
O=C(/C=C/c1cccc(S(=O)(=O)Nc2ccccc2)c1)NO = 1

--- query ---
What value of measured % PI+ cells is listed for `CC(C)(C)c1ccc(C(=O)Nc2ccc(C(=O)NO)cc2)cc1` ?
1

====

Tested on: PEX405 cells
Assay type: cell-based
Conditions: 10 µM, 3 days, PI positive cells (dead cells)
Assay readout: % PI+ cells

Record excerpt, results attached:
O=C(CCCCCCC(=O)Nc1ccc([C@H]2O[C@@H](CSc3nc(-c4ccccc4)c(-c4ccccc4)o3)C[C@@H](c3ccc(CO)cc3)O2)cc1)NO = 4%
Cn1c(/C=C/C(=O)NO)ccc1/C=C/C(=O)c1cccc(F)c1 = 91%

Record % PI+ cells per entry; entries follow.
1. O=C(CCCCCCC(=O)NO)NO [Suberoyl bis-hydroxamic acid]
2. O=C(NO)c1ccc(Cn2c(=O)n(CCc3ccccc3)c(=O)c3ccccc32)cc1
3. CN1CCc2c(c3ccccc3n2Cc2ccc(C(=O)NO)cc2)C1.Cl [Tubastatin A (Hydrochloride), Tubastatin A]
4. CCCCNNC(=O)c1ccc(-c2cccc(F)c2F)cc1
5. CC1(C)c2cccc(C(=O)NO)c2CN1c1cnc(C(F)(F)F)cn1

1%
2%
1%
1%
1%
